# test-system: human DGKζ (Homo sapiens, UniProt Q13574)
# Construct: TVMV protease cleavage site (C); Hexa-His (C); made in house; host or cells: Sf9 insect cells (baculovirus, Bac-to-Bac)
# Sequence (Q13574 with tags, fused parts or gaps isoform Q13574-4): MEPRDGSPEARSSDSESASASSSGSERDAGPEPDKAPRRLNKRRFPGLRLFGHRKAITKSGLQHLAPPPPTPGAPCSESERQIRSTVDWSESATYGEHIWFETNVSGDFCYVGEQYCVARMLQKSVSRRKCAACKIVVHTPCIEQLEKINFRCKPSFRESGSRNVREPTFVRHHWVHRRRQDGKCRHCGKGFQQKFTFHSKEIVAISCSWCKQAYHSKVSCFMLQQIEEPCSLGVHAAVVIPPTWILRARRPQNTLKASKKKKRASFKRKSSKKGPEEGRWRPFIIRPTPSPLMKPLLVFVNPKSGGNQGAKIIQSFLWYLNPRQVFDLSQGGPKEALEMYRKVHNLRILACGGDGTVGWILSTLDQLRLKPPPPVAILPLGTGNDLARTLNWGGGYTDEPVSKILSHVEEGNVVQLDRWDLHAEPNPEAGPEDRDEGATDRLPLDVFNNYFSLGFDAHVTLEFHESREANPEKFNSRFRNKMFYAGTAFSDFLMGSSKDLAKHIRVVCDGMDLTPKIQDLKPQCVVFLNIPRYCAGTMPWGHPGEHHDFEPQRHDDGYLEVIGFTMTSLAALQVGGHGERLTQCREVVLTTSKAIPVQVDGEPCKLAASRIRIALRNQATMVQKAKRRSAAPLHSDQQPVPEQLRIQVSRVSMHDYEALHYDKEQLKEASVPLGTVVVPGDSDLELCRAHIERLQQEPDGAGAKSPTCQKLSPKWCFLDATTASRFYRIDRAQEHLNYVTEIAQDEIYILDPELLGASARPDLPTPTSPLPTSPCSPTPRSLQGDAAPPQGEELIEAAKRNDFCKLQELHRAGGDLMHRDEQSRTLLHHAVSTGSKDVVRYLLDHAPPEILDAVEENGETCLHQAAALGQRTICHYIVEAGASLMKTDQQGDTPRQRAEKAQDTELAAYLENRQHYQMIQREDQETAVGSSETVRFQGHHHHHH
# protocol-text: DGKζ LIPGLO assay (extruded liposome substrate), in vitro DGK inhibition
# Format: biochemical
# measurement-context: liposome (LIPGLO) assay; read-out: DGKz LIPGLO IC50
Structures can show the parent of a compound that is named as a salt.
I'd appreciate it if you could supply log10(IC50) values for the items below.
Hi team, quick reminder: these entries are log10 of IC50 (µM).

{"compound": "Cc1nnc(C2CN(c3cc(=O)n(C)c4ccc(C#N)nc34)CCN2C(c2ccc(F)cc2)c2ccc(F)cc2)o1 (centres unmarked) [Example 126]", "recorded-metric": "log10(IC50)", "meas-value": 1.49}
{"compound": "COC[C@H]1CN(c2cc(=O)n(C)c3ccc(C#N)nc23)[C@H](C)CN1C(c1ccc(F)cc1)c1ccc(F)cc1 [Example 1183]", "recorded-metric": "log10(IC50)", "meas-value": 0.95}

Consider the following items and state reported log10(IC50) for each.
1. CC[C@@H]1CN(c2cc(=O)n(C)c3ccc(C#N)nc23)[C@@H](C)CN1Cc1ccc(OC(F)(F)F)cc1F [Example 1347]
2. Cn1c(=O)cc(N2CC(C3CC3)N(C(c3ccc(F)cc3)c3ccc(F)cc3)CC2C2CC2)c2nc(C#N)ccc21 (single isomer, unassigned) [Example 153]
3. C[C@@H]1CN(c2cc(=O)n(C)c3ccc(C#N)nc23)[C@@H](C)CN1C(c1ccccc1)c1cccc(Cl)c1 (some centres unmarked) [Example 282]
4. CC(c1ccc(F)cn1)N1C[C@H](C)N(c2cc(=O)n(C)c3ccc(C#N)nc23)C[C@H]1C (single isomer, unassigned) [Example 640]
5. CC[C@H]1CN(C(C)c2ccc(OC)cc2)[C@H](CC)CN1c1cc(=O)n(C)c2ccc(C#N)nc12 (single isomer, unassigned) [Example 1366]
6. CC(C)C(C)(F)C1CN(c2cc(=O)n(C)c3ccc(C#N)nc23)CCN1C(c1ccc(F)cc1)c1ccc(F)cc1 (single isomer, unassigned) [Example 90, TFA]

-0.77
2.38
-0.03
0.59
-1.82
2.38

###

# test-system: human DGKα (Homo sapiens)
# Construct: TVMV protease cleavage site (C); Hexa-His (C); made in house; host or cells: Sf9 insect cells (baculovirus, Bac-to-Bac)
# Sequence (P23743 with tags, fused parts or gaps): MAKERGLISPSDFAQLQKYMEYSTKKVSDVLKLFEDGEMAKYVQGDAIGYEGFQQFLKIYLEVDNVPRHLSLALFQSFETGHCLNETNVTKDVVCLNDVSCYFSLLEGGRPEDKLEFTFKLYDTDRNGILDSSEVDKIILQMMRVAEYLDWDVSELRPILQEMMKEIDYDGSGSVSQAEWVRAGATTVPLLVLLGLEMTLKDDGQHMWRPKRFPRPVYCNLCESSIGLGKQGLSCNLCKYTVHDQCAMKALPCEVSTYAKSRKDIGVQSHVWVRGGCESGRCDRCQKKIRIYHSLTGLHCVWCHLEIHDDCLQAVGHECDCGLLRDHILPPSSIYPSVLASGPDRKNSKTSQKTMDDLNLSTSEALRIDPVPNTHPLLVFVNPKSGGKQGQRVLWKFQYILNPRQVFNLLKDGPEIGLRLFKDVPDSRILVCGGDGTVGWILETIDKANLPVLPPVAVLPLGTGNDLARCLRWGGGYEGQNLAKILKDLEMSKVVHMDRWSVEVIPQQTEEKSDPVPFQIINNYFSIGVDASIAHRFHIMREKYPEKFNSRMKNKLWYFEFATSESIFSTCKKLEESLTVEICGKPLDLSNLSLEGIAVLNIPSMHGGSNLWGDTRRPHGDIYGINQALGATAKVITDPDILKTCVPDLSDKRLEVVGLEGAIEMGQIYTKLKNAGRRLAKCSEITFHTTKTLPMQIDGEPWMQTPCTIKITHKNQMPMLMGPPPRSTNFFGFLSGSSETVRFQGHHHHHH
# protocol-text: DGKα LIPGLO assay (extruded liposome substrate), in vitro DGK inhibition
# Type: biochemical
# measurement-context: liposome (LIPGLO) assay; read-out: DGKa LIPGLO IC50
recorded-metric: pIC50
Give bare numbers, as −log10 of the molar value.

{"compound": "CC(c1ccccc1OC(F)(F)F)N1C[C@H](C)N(c2cc(=O)n(C)c3ccc(C#N)nc23)C[C@H]1C (single isomer, unassigned) [Example 1212]", "pIC50": 4.64}
{"compound": "CC(c1ccc(C#N)cc1F)N1C[C@H](C)N(c2cc(=O)n(C)c3ccc(C#N)nc23)C[C@H]1C (single isomer, unassigned) [Example 1226]", "pIC50": 6.12}

// field: pIC50; key: CC[C@@H]1CN(c2cc(=O)n(C)c3ccc(C#N)nc23)[C@@H](C)CN1C(C)c1ccc(C2CC2)cc1F (single isomer, unassigned) [Example 1341] ; value = 5.36
